Can you tell me Met Kinase % Inhibition (P.130) for the items I'm about to list?
- TESTED_ON: Met receptor (EGFR/Met chimeric cells, EMR) (Homo sapiens)
- Construct: expressed in transfected cells; the other entry of the earlier key: EGFR (P00533, Epidermal growth factor receptor)
- Sequence (P08581 with tags, fused parts or gaps): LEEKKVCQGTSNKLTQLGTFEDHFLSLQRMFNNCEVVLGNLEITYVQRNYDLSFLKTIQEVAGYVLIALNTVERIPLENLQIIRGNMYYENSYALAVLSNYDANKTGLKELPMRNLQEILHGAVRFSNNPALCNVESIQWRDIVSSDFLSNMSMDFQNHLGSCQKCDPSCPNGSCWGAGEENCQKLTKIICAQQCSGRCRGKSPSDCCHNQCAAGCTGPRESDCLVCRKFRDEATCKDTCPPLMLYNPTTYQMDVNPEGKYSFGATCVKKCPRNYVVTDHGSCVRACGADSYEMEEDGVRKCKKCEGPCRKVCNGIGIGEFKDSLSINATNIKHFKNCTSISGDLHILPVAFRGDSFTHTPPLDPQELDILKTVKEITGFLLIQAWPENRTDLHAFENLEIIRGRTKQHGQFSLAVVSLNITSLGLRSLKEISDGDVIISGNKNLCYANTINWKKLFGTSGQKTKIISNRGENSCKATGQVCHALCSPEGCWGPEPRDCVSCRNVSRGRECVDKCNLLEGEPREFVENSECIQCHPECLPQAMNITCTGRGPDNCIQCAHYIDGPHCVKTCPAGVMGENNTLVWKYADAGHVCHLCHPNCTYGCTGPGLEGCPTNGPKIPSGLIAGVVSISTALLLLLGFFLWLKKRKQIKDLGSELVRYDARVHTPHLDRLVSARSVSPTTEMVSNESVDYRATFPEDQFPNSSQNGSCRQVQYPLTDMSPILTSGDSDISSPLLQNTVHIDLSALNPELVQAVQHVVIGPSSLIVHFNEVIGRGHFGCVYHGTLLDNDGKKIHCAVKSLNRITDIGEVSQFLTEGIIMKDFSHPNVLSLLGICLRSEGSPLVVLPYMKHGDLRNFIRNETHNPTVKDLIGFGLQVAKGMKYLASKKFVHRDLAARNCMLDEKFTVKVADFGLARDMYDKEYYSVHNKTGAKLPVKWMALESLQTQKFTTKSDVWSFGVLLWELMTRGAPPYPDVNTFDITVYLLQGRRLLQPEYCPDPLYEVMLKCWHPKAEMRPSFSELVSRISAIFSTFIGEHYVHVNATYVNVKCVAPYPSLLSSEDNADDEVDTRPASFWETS
- ASSAY_REMARKS: Met Autophosphorylation Assay
- Assay type: biochemical
// note: answer is a bare numeric in %

# input Endpoint output: Met Kinase % Inhibition (P.130) of "Cc1cc(C=C2C(=O)Nc3c(Br)cc(Br)c(C)c32)cc(C)c1O" . Value?
# output 51.0

# input Can you check "Cc1c(Br)cc(Br)c2c1C(=Cc1cc(F)cc(F)c1)C(=O)N2" next?
# output 42.9

# input Can you check "O=C1Nc2ccc(S(=O)(=O)N3CCOCC3)cc2C1=Cc1cccc(C(F)(F)F)c1" next?
# output 26.4

# input Can you check "Cc1c(Br)cc(Br)c2c1C(=Cc1cc(Cl)ccc1O)C(=O)N2" next?
# output 64.2

# input Can you check "Cc1c(Br)ccc2c1C(=Cc1cccc(F)c1)C(=O)N2" next?
# output 55.6

# input Can you check "Cc1c(Br)cc(Br)c2c1C(=Cc1nc3ccccc3n1C)C(=O)N2" next?
# output 39.7

# input Can you check "COc1c([N+](=O)[O-])cc(C=C2C(=O)Nc3c(Br)cc(Br)c(C)c32)cc1C(C)(C)C" next?
# output 0.6

# input Can you check "Cc1c(Br)cc(Br)c2c1C(=Cc1ccco1)C(=O)N2" next?
# output 19.9

# input Can you check "Cc1cccc(C=C2C(=O)Nc3ccc(S(=O)(=O)Nc4ccc(C(F)(F)F)cc4)cc32)c1" next?
# output 61.8

---

Can you tell me Flk Kinase % Inhibition (P.110) for the items I'm about to list?
- Test system: FLK-1 receptor
- ASSAY_REMARKS: FLK-1 Assay (cellular/catalytic ELISA, VEGF-stimulated phosphotyrosine)
- Format: cell-based
- Set-up: concentration or dose not given beside the values
- Experimental: The cellular/catalytic assays described herein are performed in an ELISA format. […] Non-substrate components of the cell lysate are washed away and the amount of phosphorylation on the substrate is detected with an antibody specifically recognizing phosphotyrosine compared with control cells that were not contacted with a test compound. […]
// note: answer is a bare numeric in %

# input I'm curious: which Flk Kinase % Inhibition (P.110) was measured for "Cc1c(Br)cc(Br)c2c1C(=Cc1ccc(F)cc1C(F)(F)F)C(=O)N2" tested on FLK-1 receptor?
# output 12.3

# input Can you check C=C(C)C1CC=C(C=C2C(=O)Nc3c(Br)cc(Br)c(C)c32)CC1 (centres unmarked) next?
# output 16.4

# input Can you check "Cc1c(Br)cc(Br)c2c1C(=Cc1cc(C(C)(C)C)cc(C(C)(C)C)c1O)C(=O)N2" next?
# output −5.1

# input Can you check "CCOC(=O)CCc1c(C(=O)OCC)[nH]c(C=C2C(=O)Nc3c(Br)cc(Br)c(C)c32)c1CC(=O)OCC" next?
# output 1.0

# input Can you check "O=C1Nc2ccc(S(=O)(=O)N3CCOCC3)cc2C1=Cc1ccc([N+](=O)[O-])cc1" next?
# output 11.0

# input Can you check "Cc1c(Br)cc(Br)c2c1C(=Cc1ccccc1Sc1ccc(Cl)cc1)C(=O)N2" next?
# output 5.5

# input Can you check "O=C1Nc2ccc(CCCl)cc2C1=Cc1ccc(-c2ccccc2)cc1" next?
# output 10.1

# input Can you check "Cc1c(Br)cc(Br)c2c1C(=Cc1cc3c4c(c1O)CCCN4CCC3)C(=O)N2" next?
# output −0.4
